- targetUnderTest: human recombinant P2X7 receptors (Homo sapiens, UniProt Q99572)
- Construct: expressed in transfected cells
- Sequence (Q99572 whole entry): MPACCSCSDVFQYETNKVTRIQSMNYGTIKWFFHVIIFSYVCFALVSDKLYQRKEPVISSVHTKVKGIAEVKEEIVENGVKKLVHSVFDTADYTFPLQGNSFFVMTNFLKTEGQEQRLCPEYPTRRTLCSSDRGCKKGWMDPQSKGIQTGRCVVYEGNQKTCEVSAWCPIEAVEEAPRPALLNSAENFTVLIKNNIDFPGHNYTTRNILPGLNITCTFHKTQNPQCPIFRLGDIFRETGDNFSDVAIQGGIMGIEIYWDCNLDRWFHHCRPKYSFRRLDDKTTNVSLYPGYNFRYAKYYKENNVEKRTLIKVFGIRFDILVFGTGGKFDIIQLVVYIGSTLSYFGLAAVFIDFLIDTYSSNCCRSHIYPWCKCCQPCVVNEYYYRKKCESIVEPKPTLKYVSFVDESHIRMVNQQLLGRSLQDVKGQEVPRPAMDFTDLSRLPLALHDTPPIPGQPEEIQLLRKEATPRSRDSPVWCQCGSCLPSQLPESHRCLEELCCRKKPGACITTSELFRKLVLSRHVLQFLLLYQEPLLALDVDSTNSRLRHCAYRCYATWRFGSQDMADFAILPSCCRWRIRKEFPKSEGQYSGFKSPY
- methodSummary: Ethidium Accumulation Assay 1
- Format: cell-based
- experimentalConditions: HEK293 cells stably expressing human recombinant P2X7; 1 mM ATP; ethidium 100 μM; read-out: Assay 1 (antagonist pIC50 for blocking ATP responses, ethidium accumulation) (converted)
Structures can show the parent of a compound that is named as a salt.
measurementLabel: IC50

Some entries whose results are on file:
Give its IC50 value. Item: `O=C(c1ccc(Cl)cc1Cl)N1CCn2c(Cl)cnc2C1`
< 501 nM

Give its IC50 value. Item: `O=C(c1cccc(C(F)(F)F)c1Cl)N1CCn2c(nc(Cl)c2Br)C1`
< 10 nM

Give its IC50 value. Item: CC(C)(C)c1cn2c(n1)CN(C(=O)c1cccc(C(F)(F)F)c1Cl)CC2 [Example 13, hydrochloride]
< 1000 nM

Next:
Give its IC50 value. Item: O=C(c1cccc(Cl)c1Cl)N1CCn2cc(-c3ccccc3)nc2C1 [Example 15, hydrochloride]
< 1000 nM

Give its IC50 value. Item: `O=C(c1ccc(F)cc1Cl)N1CCn2c(-c3cnccn3)cnc2C1`
< 10 nM

Give its IC50 value. Item: O=C(c1ccc(Cl)cc1Cl)N1CCn2c(-c3ccccc3)cnc2C1 [Example 5, hydrochloride]
< 100 nM

Give its IC50 value. Item: O=C(c1cccc(C(F)(F)F)c1Cl)N1CCn2c(-c3ccc(F)cc3)cnc2C1 [Example 22, hydrochloride]
< 100 nM

Give its IC50 value. Item: `O=C(c1cccc(C(F)(F)F)c1Cl)N1CCn2c(-c3cscn3)cnc2C1`
< 10 nM

Give its IC50 value. Item: O=C(c1cccc(C(F)(F)F)c1Cl)N1CCn2c(-c3ccccc3)cnc2C1 [Example 4, hydrochloride]
< 10 nM

Give its IC50 value. Item: `O=C(c1cccc(C(F)(F)F)c1Cl)N1CCn2c(nc(C(F)(F)F)c2-c2ccc(F)cc2)C1`
< 100 nM

Give its IC50 value. Item: O=C(c1cccc(Cl)c1Cl)N1CCn2c(-c3ccccc3)cnc2C1 [Example 9, hydrochloride]
< 10 nM

Give its IC50 value. Item: `CCc1cn2c(n1)CN(C(=O)c1cccc(C(F)(F)F)c1Cl)CC2`
< 100 nM

Give its IC50 value. Item: `Cc1cn2c(n1)CN(C(=O)c1cccc(Cl)c1Cl)CC2`
< 501 nM

Give its IC50 value. Item: `O=C(c1cccc(C(F)(F)F)c1Cl)N1CCn2c(-c3ccc(F)cn3)cnc2C1`
< 10 nM

Give its IC50 value. Item: `O=C(c1ccc(Cl)cc1Cl)N1CCn2cc(C(F)(F)F)nc2C1`
< 1000 nM
